Provide the recorded TGI for the entries that follow.
Tested on: BT-549 breast
Experiment: NCI tumour cell line growth inhibition, 48 h
Give the number; µM is assumed, so skip it.

stdin: Any idea what TGI was measured for O=C(Nc1ccc(Br)cc1)c1cc(Br)cc(Br)c1O ?
stdout: 14.4

stdin: For Cc1ccc2c(c1)sc(-c1ccc(N(C)C)cc1)[n+]2C then?
stdout: 8.08

stdin: Try this compound next: COc1ccc(-c2cn3ccnc3c(-c3ccc4ncn(C5CCCCC5)c4c3)n2)cc1
stdout: 3.91

---

Test system: HOP-92 NSCLC
Property: GI50

stdin: // lookup GI50 for CCN(CC)CC(C)Nc1ccc(C)c2sc3ccccc3c(=O)c12 (centres undefined)
stdout: 0.896 µM

stdin: Try CCOC(=O)/C(C1=CC(=O)C(=O)c2ccccc21)=C(/C)NCc1ccccc1 next.
stdout: 1.4 µM

stdin: What do you have for OC1CCC(Oc2cccc3cnc(Nc4ccc5nc[nH]c5c4)nc23)CC1 (centres undefined) ?
stdout: 0.467 µM

stdin: Same thing, different molecule: CCOC(=O)c1sc2c(C(=O)OCC)n3ccccc3c2c1N
stdout: 23.8 µM

---

Tested on: SF-295 CNS
Experiment: NCI tumour cell line growth inhibition, 48 h
Property: log10 TGI (log10 of the value in µM)
Log scale reminder: TGI in µM, then log10 taken.

stdin: Reported log10 TGI, compound Cc1ccc(-c2cc3nc(-c4ccccc4)nc(C(Cl)Cl)n3n2)cc1 : ____
stdout: 0.29

stdin: Now try CN(C)CCNc1cccc2sc3ccc(O)cc3c(=O)c12 .
stdout: 1.35

stdin: Item: Cc1ccc2c3c1O[C@H]1c4nc5ccccc5cc4C[C@@]4(O)[C@@H](C2)N(CC2CC2)CC[C@]314
stdout: 1.32

stdin: O=C1Cc2c(-c3ccccc3)cc(-c3cccc(Cl)c3)nc2-c2ccccc2N1 ?
stdout: 1.46

stdin: Same lookup for CC1(C)C(=O)/C(=C\c2ccco2)C[C@]2(C)[C@H]3CC=C4[C@@H]5C[C@](C)(C(=O)O)CC[C@]5(C)CC[C@@]4(C)[C@]3(C)CC[C@@H]12 , please.
stdout: 1.39

stdin: Now this one: c1ccc(N=NNNc2ccc(-c3nc4ccccc4[nH]3)cc2)cc1
stdout: 1.83

stdin: Same read-out for CCn1c2c(c3c(C(=O)OC)c(O)ccc31)C(=O)c1ccccc1C2=O ?
stdout: 1.67

stdin: Further, for OC1CCC(Oc2cccc3cnc(Nc4ccc5nc[nH]c5c4)nc23)CC1 (configuration not stated) ?
stdout: 1.08

stdin: NC1CCC(c2cc3ccccc3s2)(N2CCCCC2)CC1 (configuration not stated) , same question.
stdout: 1.10

---

System: PC-3 prostate
Assay: NCI tumour cell line growth inhibition, 48 h
Property: TGI (µM)
Respond with the bare value in µM.

stdin: So what TGI did OCC1OC(N2C=C(c3nc4ccccc4s3)C3C=CC=CC32)C(O)C1O (stereo unspecified) get with PC-3 prostate?
stdout: 42.4

stdin: Okay, and O=C1CSC2(CCN(CCCN3c4ccccc4Sc4ccc(Cl)cc43)CC2)N1 ?
stdout: 16.9

stdin: Another compound: c1cc(-c2sc(-c3ccncc3)c(-c3ccncc3)c2-c2ccncc2)ccn1
stdout: 57.4

---

Tested on: SN12C renal
Assay: NCI tumour cell line growth inhibition, 48 h
Property: TGI

stdin: Query: TGI; subject: CC(SC1=CC(=O)c2c(O)ccc(O)c2C1=O)C(=O)O (centres undefined)
stdout: > 77.7 µM

stdin: And then O=C(N=Nc1c(O)[nH]c2ccccc12)c1ccccc1O , what is it?
stdout: > 100 µM

stdin: Quick one: CC(=O)C(=C(I)I)c1ccccc1
stdout: 28.4 µM

stdin: Next compound: O=C1CC(O)c2c(Cl)sc(Cl)c21 (centres undefined)
stdout: > 48.6 µM

stdin: How about this compound: O=[N+]([O-])C(=C(NCc1ccccc1)NCc1ccccc1)C(Cl)=C(Cl)Cl
stdout: > 100 µM

stdin: And what about the compound Cn1cnc([N+](=O)[O-])c1Sc1ncnc2nc[nH]c12 ?
stdout: > 100 µM

stdin: Also CCCCCCCCOCC1S(=O)(=O)OCCOS1(=O)=O , if possible.
stdout: > 100 µM

stdin: Cool, now Cn1c(N/N=C/c2ccc(Cl)cc2)nc(-c2ccc(Cl)cc2)c(C#N)c1=O
stdout: > 100 µM

stdin: Let us now turn to COC(=O)C12C3C4C1C1C2C3C41I (centres undefined)
stdout: > 100 µM

stdin: Then NC1CCC(c2cc3ccccc3s2)(N2CCCCC2)CC1 (centres undefined) ?
stdout: 3.1 µM

stdin: Ok, now COc1ccc2c(c1)CC[C@@H]1[C@@H]2CC[C@]2(C)/C(=N/OCCN3CCCCC3)CC[C@@H]12
stdout: 17 µM

stdin: Can you handle CCCCCCCCCC[C@@H](O)[C@@H]1CC[C@@H]([C@@H]2CC[C@@H]([C@@H](O)CCCCCCCCCCC(O)CC3=CC(C)OC3=O)O2)O1 (some centres undefined) next?
stdout: > 10 µM

stdin: Check Cc1cc(O)cc(C)c1/C=C/c1cncc(C(=O)N(C)C)c1 too.
stdout: > 25 µM

stdin: Try this compound next: NC(N)=N/N=C/c1c(-c2cc(Cl)sc2Cl)nc2n1CCS2
stdout: 14.2 µM

---

Test system: SN12C renal
Test: NCI tumour cell line growth inhibition, 48 h
Property: TGI (µM)
Field format: number, assumed µM, no unit text.

stdin: Would you mind telling me what TGI value was observed for CC(NC(=O)c1ccc(OP(=O)(OCC2=CC(=O)c3ccccc3C2=O)N(C)CCCCCl)cc1)c1ccc(OCC2CCCCC2)c(C(N)=O)c1 (stereo not given) ?
stdout: 26.2

stdin: Quick one: C/C(=N/O)c1cccc(Nc2nc3ccccc3c3[nH]c4ccccc4c23)c1
stdout: 13.4

stdin: Please give the result for CC1=CC[C@@H]2C(C)(C)[C@@H](O)CC[C@@]2(C)[C@@H]1COc1ccc2ccc(=O)oc2c1 too.
stdout: 22.7

stdin: Likewise for Nc1ccc2c(c1)[O][Sn]([c]1ccccc1)([c]1ccccc1)[O]C2=O ?
stdout: 20.4

---

System: TK-10 renal
Assay: NCI tumour cell line growth inhibition, 48 h
Property: TGI

stdin: What value of TGI has been recorded for this entry: Fc1cccc2nc(-c3ccccc3)cc(OCc3ccccc3)c12
stdout: > 100 µM

stdin: Now the same for C=CCN(N=O)C(=O)N(CCC)CCCC(NC(C)=O)C(=O)NCc1ccccc1 (stereo unspecified)
stdout: > 100 µM

stdin: Follow-up entry: c1ccc2c(NCCCCCCCCNc3c4ccccc4nc4ccccc34)c3ccccc3nc2c1
stdout: 5.98 µM

stdin: Do the same for OC1CCC(C2C3CCCCC3C3CCCCC3C2C2CCC(O)CC2)CC1 (stereo unspecified) please
stdout: 34.9 µM

stdin: Try CC1(C)C2CCC1C(=O)C(C=O)C2 (stereo unspecified) next.
stdout: > 100 µM

stdin: Now try CCN(CC)CC(C)Nc1ccc(C)c2sc3ccccc3c(=O)c12 (stereo unspecified) .
stdout: 17.6 µM

stdin: Repeat for the following compound: CCN(CC)C(=S)SSC1CCCCC1
stdout: 34.6 µM

stdin: Please answer likewise for O=C(O)C(Cc1cccs1)C(=O)O
stdout: > 100 µM

stdin: What would you report for CN(C)Cc1cc(C(=O)/C=C/c2ccc(/C=C/C(=O)c3cc(CN(C)C)c(O)c(CN(C)C)c3)cc2)cc(CN(C)C)c1O ?
stdout: > 100 µM

stdin: Entry to check: CC1(C)C(=O)/C(=C\c2ccco2)C[C@]2(C)[C@H]3CC=C4[C@@H]5C[C@](C)(C(=O)O)CC[C@]5(C)CC[C@@]4(C)[C@]3(C)CC[C@@H]12
stdout: 36.7 µM

stdin: Now try COC(=O)/C(=N/NC(C)(C)C)C(C(=O)C=C(C)C)C(=O)C(=O)Nc1ccc(Cl)cc1C (stereo unspecified) .
stdout: > 100 µM

stdin: Same lookup for COc1ccc(-c2cn3ccnc3c(-c3ccc4ncn(C5CCCCC5)c4c3)n2)cc1 , please.
stdout: 68.9 µM

stdin: Next record, please: c1ccc(COc2ccc3[nH]c4c(ncc5[nH]c6ccccc6c54)c3c2)cc1
stdout: 40.8 µM

stdin: Record: CC(=O)O/C(C)=C\C(=O)O/N=C(\N)c1ccc(C)cc1
stdout: > 100 µM

stdin: Try the compound CCOC(=O)/C=C(/C(=O)OCC)n1cc(C)c(=O)n(Cc2cnnn2CCCCOC(C)=O)c1=O
stdout: 26.7 µM

stdin: Now try O=C(Nc1ccc(Br)cc1)c1cc(Br)cc(Br)c1O .
stdout: > 100 µM

---

Tested on: MDA-MB-435
Test: NCI tumour cell line growth inhibition, 48 h
Field: TGI. Provide a value for each of the compounds that follow.
State the answer as a number, implicitly in µM.

stdin: I'm curious: which TGI was measured for COc1cccc(-c2cc(=O)c3cc(C)cnc3[nH]2)c1 tested on MDA-MB-435?
stdout: 0.0686

stdin: Same read-out for COc1cccc(/C=C/C2=NN(c3cccc(S(=O)(=O)O)c3)C3(C2)SCC(=O)N3c2nc3ccccc3s2)c1 (centres undefined) ?
stdout: 66.6

stdin: Now the same for COc1ccc(N=C/C=C/Nc2ccc(OC)cc2)cc1
stdout: 24
